Would you kindly list DC50 for each of these compounds?
# target_entity: TYK2 (Homo sapiens)
# Sequence (P29597 whole entry): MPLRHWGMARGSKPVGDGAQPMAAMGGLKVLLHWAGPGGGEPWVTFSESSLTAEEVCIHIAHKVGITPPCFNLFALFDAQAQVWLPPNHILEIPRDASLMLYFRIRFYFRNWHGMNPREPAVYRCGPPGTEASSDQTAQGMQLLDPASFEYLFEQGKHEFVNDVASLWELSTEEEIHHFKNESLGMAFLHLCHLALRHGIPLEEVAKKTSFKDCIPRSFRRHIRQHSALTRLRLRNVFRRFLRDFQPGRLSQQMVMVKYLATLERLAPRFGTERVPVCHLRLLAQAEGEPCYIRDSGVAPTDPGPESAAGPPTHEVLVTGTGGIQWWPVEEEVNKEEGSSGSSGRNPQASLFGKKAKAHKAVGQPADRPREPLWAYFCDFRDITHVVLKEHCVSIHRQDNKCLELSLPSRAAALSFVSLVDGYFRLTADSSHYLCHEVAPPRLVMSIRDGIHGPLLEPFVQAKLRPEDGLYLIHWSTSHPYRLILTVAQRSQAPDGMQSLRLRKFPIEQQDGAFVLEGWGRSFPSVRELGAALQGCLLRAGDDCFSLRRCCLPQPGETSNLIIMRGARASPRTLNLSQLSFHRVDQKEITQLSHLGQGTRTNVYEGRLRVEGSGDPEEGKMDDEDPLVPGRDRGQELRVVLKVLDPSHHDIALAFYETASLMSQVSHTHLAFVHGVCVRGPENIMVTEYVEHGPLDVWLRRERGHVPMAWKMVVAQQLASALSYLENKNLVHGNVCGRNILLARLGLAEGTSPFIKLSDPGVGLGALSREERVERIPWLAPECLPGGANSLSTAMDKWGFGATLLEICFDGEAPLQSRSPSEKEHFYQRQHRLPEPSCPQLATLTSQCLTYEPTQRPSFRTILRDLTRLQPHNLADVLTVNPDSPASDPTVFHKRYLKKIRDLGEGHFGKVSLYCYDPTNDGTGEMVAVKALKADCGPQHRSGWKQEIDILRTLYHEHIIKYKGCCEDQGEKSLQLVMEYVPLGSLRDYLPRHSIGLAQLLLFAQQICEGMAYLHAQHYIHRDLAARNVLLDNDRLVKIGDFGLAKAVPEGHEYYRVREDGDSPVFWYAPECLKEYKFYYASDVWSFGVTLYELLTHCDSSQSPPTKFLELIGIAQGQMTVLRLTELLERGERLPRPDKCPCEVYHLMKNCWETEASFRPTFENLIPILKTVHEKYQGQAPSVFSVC
# procedure_text: TYK2 degradation MSD assay in EBV-B cells
# Format: cell-based
# Design: endogenous in cells; host or cells: EBV-B cells
# condition_details: 4 to 24 hours incubation, read-out: TYK2 MSD DC50 rating in EBV-B

| compound | target_entity | measured |
| --- | --- | --- |
| CNC(=O)c1cnc(Nc2ccc(CN3CCN(CC4CCN(c5ccc(-c6ccc7c(c6)n(C)c(=O)n7C6CCC(=O)NC6=O)cc5)CC4)CC3)cn2)cc1Nc1cccc(-c2ncc(F)cn2)c1OC (centres unmarked) | TYK2 (Homo sapiens) | < 1 nM |

For each entry beneath this line, provide reported DC50.
1. CNC(=O)c1cnc(Nc2ccc(CN3CCC(CC#Cc4cccc5c4n(C)c(=O)n5C4CCC(=O)NC4=O)CC3)cn2)cc1Nc1cccc(-c2ncc(F)cn2)c1OC (centres unmarked)
2. CNc1cc(N2CCc3c(-c4ccc(CN5CCC6(CC5)CCN(C(=O)c5cccc(N7CCC(=O)NC7=O)c5)CC6)cn4)cccc32)nn2c(C(=O)N[C@@H]3C[C@@H]3F)cnc12
3. CNc1cc(Nc2cccn(-c3cc(C(=O)NCCCCCCCCc4cccc5c4n(C)c(=O)n5C4CCC(=O)NC4=O)ccn3)c2=O)nn2c(C(=O)N[C@@H]3C[C@@H]3F)cnc12 (some centres unmarked)
4. CNc1cc(-c2cnn(C3CCN(C(=O)NCCCCCCc4ccc5c(c4)n(C)c(=O)n5C4CCC(=O)NC4=O)CC3)c2)nn2c(C(=O)N[C@@H]3C[C@@H]3F)cnc12 (some centres unmarked)

Ans.
< 1 nM
> 100 nM
> 100 nM
> 100 nM
